# System: UACC-62
# MEASUREMENT DESCRIPTION: NCI tumour cell line growth inhibition, 48 h
The source made the active and inactive calls. Rule as the data show it: active = GI50 up to about 1.1 µM and inactive = higher.
ASSAY ENDPOINT: GI50

>>> result("COC(=O)C1=C(c2cc(OC)c(OC)c(OC)c2)OC(c2ccc3c(c2)OCO3)C1 (centres undefined)")
"5.05 µM (inactive)"
>>> result("CCOc1ccc(C2=NN(CC)C(=O)C(C3C(=O)N(c4ccccc4)N=C3C)C2)cc1 (centres undefined)")
"> 100 µM (inactive)"
>>> result("Cc1nc2c(n1CCCl)C(=O)c1ccccc1C2=O")
"13 µM (inactive)"
>>> result("C[N+](C)(C)C(Cc1c[nH]c(=S)[nH]1)C(=O)O (centres undefined)")
"> 100 µM (inactive)"
>>> result("Nc1nnnn1CCO")
"> 100 µM (inactive)"

Look up GI50: C#CCn1c2c(c3ccccc3c1=O)C(=O)c1ccccc1-2 21.4 µM (inactive)
